B1: Azoarcus group I ribozyme (parent)
chain: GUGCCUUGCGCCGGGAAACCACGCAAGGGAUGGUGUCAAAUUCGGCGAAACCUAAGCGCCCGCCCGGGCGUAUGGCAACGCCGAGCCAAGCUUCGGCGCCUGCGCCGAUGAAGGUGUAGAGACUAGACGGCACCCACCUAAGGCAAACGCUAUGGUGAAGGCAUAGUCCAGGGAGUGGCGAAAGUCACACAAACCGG

Variants of: B1
Assay: reverse-splicing fitness (ratio to wild type); higher = more active; in vitro selection; Mg2+ level not given
Where reverse-splicing fitness equals or exceeds 0.006, the correct label is YES; where it does not, the label is NO.

>>> class_name("C82A A111C A120U A145G C150G C169U U176G")
"NO"
>>> class_name("C82A A145U C150U U176C")
"YES"
>>> class_name("C82A A111U A120C A145C C169G U176C")
"YES"
>>> class_name("C82A A111U A145U C150A C169U U176C")
"YES"
>>> class_name("C82G A145G U176A")
"YES"
>>> class_name("C169U U176A")
"YES"
>>> class_name("C82U A111G A120U A145G C150G C169G")
"YES"
>>> class_name("C82U A145U C150U")
"YES"
>>> class_name("C82G A120C U176C")
"YES"
>>> class_name("A111C A120U A145G C169U U176G")
"NO"
>>> class_name("C82A A111U A120C A145C C150G C169U U176C")
"YES"
>>> class_name("C82U A111G A145G C150A U176A")
"YES"
>>> class_name("A111U A145C C150G C169G U176G")
"NO"
>>> class_name("A111C A120G C150U")
"YES"
>>> class_name("C82G A111G A145G C169G")
"YES"
>>> class_name("C82G A120G A145U C150U C169A U176G")
"NO"
>>> class_name("C82U A111G A120U A145C C169G U176G")
"NO"
>>> class_name("C82A A111U A120U A145U C169A U176A")
"NO"
>>> class_name("C82A A120U A145U C150A C169U U176C")
"NO"
>>> class_name("C82A A111U A120U A145C C150A U176C")
"NO"
>>> class_name("C82A A111G A120C A145U C150G C169G U176C")
"NO"
>>> class_name("C82A A120C C150U C169G")
"YES"
>>> class_name("C82U A111G A120G A145C C150U C169G")
"YES"
>>> class_name("C82G A111G A120C A145U C150A C169U U176G")
"YES"
